System tested: Nuclear receptor subfamily 1 group I member 2 (Homo sapiens, UniProt O75469)
Sequence (O75469 whole entry, the tested form may be a part): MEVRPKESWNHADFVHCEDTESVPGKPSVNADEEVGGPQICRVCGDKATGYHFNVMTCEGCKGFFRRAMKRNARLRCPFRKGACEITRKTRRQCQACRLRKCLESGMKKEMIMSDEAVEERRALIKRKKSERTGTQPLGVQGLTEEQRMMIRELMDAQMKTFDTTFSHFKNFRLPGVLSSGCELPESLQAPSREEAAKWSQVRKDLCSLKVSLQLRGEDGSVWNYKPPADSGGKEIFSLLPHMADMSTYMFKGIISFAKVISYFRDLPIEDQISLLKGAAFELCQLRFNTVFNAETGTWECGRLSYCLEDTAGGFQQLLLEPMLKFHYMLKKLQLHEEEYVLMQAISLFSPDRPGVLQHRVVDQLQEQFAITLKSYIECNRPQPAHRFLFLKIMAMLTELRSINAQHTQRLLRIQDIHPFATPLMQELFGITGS
Assay comment: Agonist activity at GAL4 DBD fused human PXR LBD transfected in HEK293 cells incubated overnight by luciferase reporter gene assay
Format: cell-based
Observable: pEC50
Schema: pEC50 number; meaning minus log10 of the concentration expressed in molar units.

Q: Give the value of pEC50 reported for the following: Cc1ccc2cc(C(C)(C)O)c(O)c3c2c1[C@]1(CCC(C)(C)O1)O3
Result: 4.82
